Target: human IRAK4 kinase domain (aa 154-460) (Homo sapiens (Human), UniProt Q9NWZ3)
Sequence (Q9NWZ3 154-460): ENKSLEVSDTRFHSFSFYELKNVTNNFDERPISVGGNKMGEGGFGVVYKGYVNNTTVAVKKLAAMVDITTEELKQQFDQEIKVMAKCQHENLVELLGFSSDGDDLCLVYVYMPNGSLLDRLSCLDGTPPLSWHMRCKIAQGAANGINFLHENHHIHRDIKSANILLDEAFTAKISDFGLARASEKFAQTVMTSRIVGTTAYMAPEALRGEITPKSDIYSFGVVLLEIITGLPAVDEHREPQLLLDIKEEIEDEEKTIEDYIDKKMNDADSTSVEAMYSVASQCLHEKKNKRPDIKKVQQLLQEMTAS
Assay: IRAK4 Enzymatic DELFIA Assay, Protocol B
Assay type: biochemical
Conditions: human IRAK4 kinase domain (aa 154-460), 0.6 mM ATP (KM); read-out: IRAK4 DELFIA Protocol B IC50
pIC50: −log10 of the molar value.
Please note: TRUE applies when pIC50 is 7 or greater, and FALSE applies otherwise.

Use these answered entries as a reference point.
CC(C)Oc1cc2c(OC[C@@]34C[C@@H]3CN(C(=O)CC#N)C4)nccc2cc1C(N)=O = FALSE
CC(C)Oc1cc2c(OCC3CNC3)ccnc2cc1C(N)=O = FALSE
CC(C)Oc1cc2c(OCC3COC3)ccnc2cc1C(N)=O = FALSE
CC(C)Oc1cc2c(OCC3CCOC3)ccnc2cc1C(N)=O (stereo not drawn) = FALSE
CC(C)Oc1cc2c(OCC3CCCS(=O)(=O)N3)nccc2cc1C(N)=O (stereo not drawn) = FALSE
CC(C)Oc1cc2c(OCC3CCCN3)nccc2cc1C(N)=O (stereo not drawn) = FALSE
CC(C)Oc1cc2c(OCC3CNC(=O)C3)nccc2cc1C(N)=O (stereo not drawn) = FALSE
CC(C)Oc1cc2c(OC[C@@H]3NC(=O)CC3(C)C)nccc2cc1C(N)=O = TRUE

Determine whether measured pIC50 meets or exceeds 7 for CC(C)Oc1cc2c(OC[C@H]3CCCO3)ccnc2cc1C(N)=O
FALSE

Determine whether measured pIC50 meets or exceeds 7 for CC(C)Oc1cc2c(OC[C@@H]3CC(CO)C(=O)N3)nccc2cc1C(N)=O (stereo partly drawn)
TRUE

Determine whether measured pIC50 meets or exceeds 7 for CC(C)Oc1cc2c(OC3C[C@@H]4C[C@H]3CN(C(=O)CC#N)C4)ccnc2cc1C(N)=O (stereo in doubt)
FALSE

Determine whether measured pIC50 meets or exceeds 7 for CC(C)Oc1cc2c(OCC3CCNC(=O)C3)nccc2cc1C(N)=O (stereo not drawn)
FALSE

###

Entries and their measured log10 IC50 follow.
Biological target: human IRAK4 kinase domain (aa 154-460) (Homo sapiens (Human))
Assay: IRAK4 Enzymatic DELFIA Assay, Protocol B
Format: biochemical
Details: human IRAK4 kinase domain (aa 154-460), 0.6 mM ATP (KM); read-out: IRAK4 DELFIA Protocol B IC50
Field: value | Transform: log10 | Quantity: IC50 | Unit: nM

Below, 2 compounds whose answers are already recorded.
CC(C)Oc1cc2c(O[C@@H]3CC4CCC3C4)ccnc2cc1C(N)=O (stereo partly drawn) [Example 14] = 2.36
CC(C)Oc1cc2c(OC[C@H]3CCCN(C(=O)CC#N)C3)ccnc2cc1C(N)=O [Example 93] = 3.18

log10 IC50 recorded for this compound, CC(C)Oc1cc2c(OC[C@H]3CNC[C@@H]3C(F)(F)F)nccc2cc1C(N)=O [Example 46] , is 2.37

log10 IC50 recorded for this compound, CC(C)Oc1cc2c(OC[C@H]3CCCN3)nccc2cc1C(N)=O [Example 41] , is 3.37

###

Biological target: human IRAK4 FL (Full Length) (Homo sapiens (Human), UniProt Q9NWZ3)
Sequence (Q9NWZ3 whole entry): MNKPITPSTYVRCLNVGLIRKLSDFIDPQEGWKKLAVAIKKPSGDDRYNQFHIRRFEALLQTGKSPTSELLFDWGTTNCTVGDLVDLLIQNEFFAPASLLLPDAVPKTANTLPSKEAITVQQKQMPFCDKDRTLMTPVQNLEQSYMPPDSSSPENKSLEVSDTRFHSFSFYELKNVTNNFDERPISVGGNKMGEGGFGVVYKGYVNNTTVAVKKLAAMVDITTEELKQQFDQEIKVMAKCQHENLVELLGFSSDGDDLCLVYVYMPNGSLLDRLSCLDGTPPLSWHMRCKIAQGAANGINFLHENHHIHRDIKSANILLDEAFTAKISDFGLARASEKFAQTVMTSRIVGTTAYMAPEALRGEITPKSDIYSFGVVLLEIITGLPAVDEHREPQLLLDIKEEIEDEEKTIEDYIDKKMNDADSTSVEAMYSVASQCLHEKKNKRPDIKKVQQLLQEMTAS
Test: IRAK4 Enzymatic DELFIA Assay, Protocol A
Format: biochemical
Settings: human IRAK4 FL, 0.6 mM ATP (KM); read-out: IRAK4 DELFIA Protocol A IC50
pIC50: −log10 of the molar value.
Please note: class 1 applies when pIC50 is 7 or greater, and class 0 applies otherwise.

Use these answered entries as a reference point.
CC[C@@H]1[C@H](F)C(=O)N[C@@H]1COc1ncnc2cc(C(N)=O)c(OC)cc12 = class 1
COc1cc2c(OC[C@H]3NC(=O)[C@@](F)(CO)[C@H]3C)nccc2cc1C(N)=O = class 0
CC(C)Oc1cc2c(O[C@@H]3CCC[C@]34CCC(=O)N4)nccc2cc1C(N)=O = class 0
COC[C@@H]1[C@H](F)C(=O)N[C@@H]1COc1nccc2cc(C(N)=O)c(OC)cc12 = class 1
NC(=O)c1cc2ccnc(OC[C@@H]3CCC(=O)N3)c2cc1OC(F)(F)F = class 0
COc1cc2c(OC[C@@H]3C[C@@](F)(CO)C(=O)N3)nccc2cc1C(N)=O = class 1

Determine whether measured pIC50 meets or exceeds 7 for COc1cc2c(OC[C@H]3NC(=O)[C@]4(F)C[C@H]34)ccnc2cc1C(N)=O
class 1

Determine whether measured pIC50 meets or exceeds 7 for C=C=COc1cc2c(OC[C@@H]3CCC(=O)N3)nccc2cc1C(N)=O
class 0

###

Target: human IRAK4 FL (Full Length) (Homo sapiens (Human))
Experiment: IRAK4 Enzymatic DELFIA Assay, Protocol A
Assay type: biochemical
Conditions: human IRAK4 FL, 0.6 mM ATP (KM); read-out: IRAK4 DELFIA Protocol A IC50
Entries and their measured pIC50 follow.
Convention used: pIC50 is expressed as -log10 of the molar concentration.

Below, 3 compounds whose answers are already recorded.
COc1cc2c(OCC3(C)COC(=O)N3)nccc2cc1C(N)=O (centres unmarked) [Example 266] = 7.13
CC[C@@H]1[C@H](O)C(=O)N[C@@H]1COc1nccc2cc(C(N)=O)c(OC)cc12 [Example 352] = 8.48
COc1cc2c(OC[C@H]3CN(C)C(=O)O3)nccc2cc1C(N)=O [Example 239] = 5.93

pIC50 recorded for this compound, CC(C)Oc1cc2c(OC[C@@H]3C[C@H](O)C(=O)N3)nccc2cc1C(N)=O [Example 150] , is 7.39

pIC50 recorded for this compound, COc1cc2c(OC[C@@H]3CCC(=O)N3)cncc2cc1C(N)=O [Example 206] , is 6.67

pIC50 recorded for this compound, COc1cc2c(OC[C@H]3NC(=O)[C@@H]4[C@@H](C)[C@@H]43)ncc(F)c2cc1C(N)=O [Example 364] , is 7.80

pIC50 recorded for this compound, CC(C)Oc1cc2c(OC[C@@H]3C[C@@H](C)C(=O)N3)nccc2cc1C(N)=O [Example 124] , is 8.11

pIC50 recorded for this compound, CC(C)Oc1cc2c(OC[C@H]3NC(=O)[C@@H]4C[C@H]34)nccc2cc1C(N)=O [Example 174] , is 8.51

pIC50 recorded for this compound, CC(C)Oc1cc2c(OC[C@@H]3CC(C)(C)C(=O)N3)nccc2cc1C(N)=O [Example 110] , is 6.38

pIC50 recorded for this compound, CC[C@@H]1[C@H](F)C(=O)N[C@@H]1COc1ccnc2cc(C(N)=O)c(OC)cc12 [Example 316] , is 6.89

###

Entries and their measured log10 of IC50 follow.
Target: human IRAK4 FL (Full Length) (Homo sapiens (Human))
Experiment: IRAK4 Enzymatic DELFIA Assay, Protocol A
Type: biochemical
Settings: human IRAK4 FL, 0.6 mM ATP (KM); read-out: IRAK4 DELFIA Protocol A IC50
Field: value | Transform: log10 | Quantity: IC50 | Unit: nM

Below, 3 compounds whose answers are already recorded.
COc1cc2c(OC[C@@H]3C[C@](C)(F)C(=O)N3)cccc2cc1C(N)=O = 0.00
COC[C@H]1[C@@H](COc2nccc3cc(C(N)=O)c(OC)cc23)NC(=O)[C@@H]1F = 0.80
CC(C)Oc1cc2c(OC[C@H]3NC(=O)C[C@@H]3C(F)(F)F)nccc2cc1C(N)=O = 2.43

log10 of IC50 recorded for this compound, COc1cc2c(OC[C@H]3NC(=O)[C@]4(F)CC[C@H]34)nccc2cc1C(N)=O , is 0.79

log10 of IC50 recorded for this compound, CC(C)Oc1cc2c(OC[C@H]3NC(=O)C[C@@H]3C)nccc2cc1C(N)=O , is 1.85

log10 of IC50 recorded for this compound, COc1cc2c(OC[C@H]3NC(=O)[C@@H]4[C@@H](CO)[C@@H]43)nccc2cc1C(N)=O , is 1.30

###

Entries and their measured IC50 follow.
Target: human IRAK4 FL (Full Length) (Homo sapiens (Human))
Assay: IRAK4 Enzymatic DELFIA Assay, Protocol A
Format: biochemical
Details: human IRAK4 FL, 0.6 mM ATP (KM); read-out: IRAK4 DELFIA Protocol A IC50
Form entry: value (nM) — number only.

Below, 5 compounds whose answers are already recorded.
Cc1nc(-c2cnc(OC[C@@H]3CCC(=O)N3)c3cc(OC(C)C)c(C(N)=O)cc23)cn1C [Example 372] = 11
COc1cc2c(OC[C@@H]3C[C@@H](F)C(=O)N3)nccc2cc1C(N)=O [Example 253] = 2.6
COc1cc2c(OC[C@H]3NC(=O)C(F)[C@H]3C)ccc(F)c2cc1C(N)=O (stereo in doubt) [Example 220] = 0.9
COc1cc2c(OC[C@H]3NC(=O)C[C@H]3CCF)nccc2cc1C(N)=O [Example 355] = 1.7
CC(C)(C)Oc1cc2c(OC[C@@H]3CCC(=O)N3)nccc2cc1C(N)=O [Example 200] = 697

// compound CC[C@H]1[C@@H](COc2nccc3cc(C(N)=O)c(OC)cc23)NC(=O)[C@@H]1N [Example 357] , assay human IRAK4 FL (Full Length) (Homo sapiens (Human)), IC50 value: 30

// compound CC(C)Oc1cc2c(OC[C@@H]3C[C@@H](CO)C(=O)N3)nccc2cc1C(N)=O [Example 166] , assay human IRAK4 FL (Full Length) (Homo sapiens (Human)), IC50 value: 4.3

// compound CC[C@H]1[C@@H](COc2nccc3cc(C(N)=O)c(OC)cc23)NC(=O)C1(F)F [Example 345] , assay human IRAK4 FL (Full Length) (Homo sapiens (Human)), IC50 value: 0.2
